# pEC50 per entry
# assayedTarget: Ba/F3 stable cells (Homo sapiens, UniProt P00533, DUP771-773, cells depend on it)
# Construct: EC50 Ba/F3-EGFR H773-V774insNPH; other: Ba/F3-EGFR H773-V774insNPH cells, 72 h, CCK-8
# Sequence (P00533 with tags, fused parts or gaps DUP771-773): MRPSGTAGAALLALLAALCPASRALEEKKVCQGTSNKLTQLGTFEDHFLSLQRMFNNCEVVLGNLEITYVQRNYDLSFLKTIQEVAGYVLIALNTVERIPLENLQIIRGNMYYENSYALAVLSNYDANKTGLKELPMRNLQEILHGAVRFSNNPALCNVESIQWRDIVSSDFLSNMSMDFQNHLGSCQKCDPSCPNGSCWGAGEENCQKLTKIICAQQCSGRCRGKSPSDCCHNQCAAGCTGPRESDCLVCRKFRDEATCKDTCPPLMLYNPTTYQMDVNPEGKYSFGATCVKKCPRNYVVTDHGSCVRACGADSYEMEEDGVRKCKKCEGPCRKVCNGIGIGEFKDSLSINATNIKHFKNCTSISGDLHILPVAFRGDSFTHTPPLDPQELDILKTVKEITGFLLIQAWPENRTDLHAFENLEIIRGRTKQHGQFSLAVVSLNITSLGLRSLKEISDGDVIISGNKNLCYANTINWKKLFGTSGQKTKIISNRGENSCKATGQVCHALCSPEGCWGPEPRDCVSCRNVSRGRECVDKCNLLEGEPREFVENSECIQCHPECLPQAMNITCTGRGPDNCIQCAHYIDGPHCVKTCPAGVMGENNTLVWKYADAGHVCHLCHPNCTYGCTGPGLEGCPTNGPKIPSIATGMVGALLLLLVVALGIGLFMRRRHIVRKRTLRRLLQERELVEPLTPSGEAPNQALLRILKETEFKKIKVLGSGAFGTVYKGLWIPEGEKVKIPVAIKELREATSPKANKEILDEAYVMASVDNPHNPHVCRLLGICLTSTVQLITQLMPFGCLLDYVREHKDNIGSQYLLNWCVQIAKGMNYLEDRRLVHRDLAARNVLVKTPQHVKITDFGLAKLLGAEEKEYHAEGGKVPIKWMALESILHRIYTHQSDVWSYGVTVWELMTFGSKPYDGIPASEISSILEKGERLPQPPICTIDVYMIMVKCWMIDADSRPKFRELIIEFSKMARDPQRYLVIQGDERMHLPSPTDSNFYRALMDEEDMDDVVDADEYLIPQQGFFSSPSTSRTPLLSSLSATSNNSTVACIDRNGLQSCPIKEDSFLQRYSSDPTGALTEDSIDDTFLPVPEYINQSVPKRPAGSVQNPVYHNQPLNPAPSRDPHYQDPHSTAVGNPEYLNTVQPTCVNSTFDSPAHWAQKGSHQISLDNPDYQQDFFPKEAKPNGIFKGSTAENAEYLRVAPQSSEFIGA
# experimentalProtocol: EC50 assay: Ba/F3 stable cell proliferation (CCK-8, 72 h)
# conditionSummary: Ba/F3-EGFR H773-V774insNPH cells
pEC50: −log10 of the molar value.
readoutName: pEC50

compound=C=CC(=O)N1CCC(Oc2cc3c(Nc4cccc5ccccc45)ncnc3cc2OC)CC1 assayedtarget="Ba/F3 stable cells (Homo sapiens, UniProt P00533, DUP771-773, cells depend on it)" readoutname=pEC50 observedmeasurement="≥ 6.70"
compound=C=CC(=O)N1CCC(Oc2c(OC)cc3ncnc4c3c2C=C(C)N4c2ccc(Cl)c(Cl)c2F)CC1 assayedtarget="Ba/F3 stable cells (Homo sapiens, UniProt P00533, DUP771-773, cells depend on it)" readoutname=pEC50 observedmeasurement="6.00 to 6.70"
compound=C=CC(=O)N1CC(c2cc3c(Nc4ccc(Cl)c(Cl)c4F)ncnc3cc2OCC)C1 assayedtarget="Ba/F3 stable cells (Homo sapiens, UniProt P00533, DUP771-773, cells depend on it)" readoutname=pEC50 observedmeasurement="≥ 6.70"
compound=C=CC(=O)N1CCC(Oc2cc3c(Nc4cc5oc6ccccc6c5cc4OC)ncnc3cc2OC)CC1 assayedtarget="Ba/F3 stable cells (Homo sapiens, UniProt P00533, DUP771-773, cells depend on it)" readoutname=pEC50 observedmeasurement="< 6.00"
compound="C=CC(=O)NC1CC(Oc2cc3c(Nc4ccc(Cl)cc4F)ncnc3cc2OC)C1 (centres unmarked)" assayedtarget="Ba/F3 stable cells (Homo sapiens, UniProt P00533, DUP771-773, cells depend on it)" readoutname=pEC50 observedmeasurement="6.00 to 6.70"
compound="C=CC(=O)NC1CC(Oc2cc3c(Nc4ccc(Cl)c(Cl)c4)ncnc3cc2OC)C1 (centres unmarked)" assayedtarget="Ba/F3 stable cells (Homo sapiens, UniProt P00533, DUP771-773, cells depend on it)" readoutname=pEC50 observedmeasurement="6.00 to 6.70"
compound=C=CC(=O)N1CCC(Oc2cc3c(Nc4cc5ccccc5cn4)ncnc3cc2OC)CC1 assayedtarget="Ba/F3 stable cells (Homo sapiens, UniProt P00533, DUP771-773, cells depend on it)" readoutname=pEC50 observedmeasurement="6.00 to 6.70"
compound=C=CC(=O)N[C@H]1C[C@@H](Oc2cc3c(Nc4ccc(Cl)c(Cl)c4F)ncnc3cc2OCCN(C)C)C1 assayedtarget="Ba/F3 stable cells (Homo sapiens, UniProt P00533, DUP771-773, cells depend on it)" readoutname=pEC50 observedmeasurement="< 6.00"
compound=C=CC(=O)N1CCC(Oc2cc3c(Nc4cccc5[nH]ccc45)ncnc3cc2OC)CC1 assayedtarget="Ba/F3 stable cells (Homo sapiens, UniProt P00533, DUP771-773, cells depend on it)" readoutname=pEC50 observedmeasurement="6.00 to 6.70"
compound="C=CC(=O)N1CCC(Oc2cc3c(NC(C(=O)O)c4cccc(Cl)c4)ncnc3cc2OC)CC1 (centres unmarked)" assayedtarget="Ba/F3 stable cells (Homo sapiens, UniProt P00533, DUP771-773, cells depend on it)" readoutname=pEC50 observedmeasurement="< 6.00"
compound=C=CC(=O)N1CCC(Oc2cc3c(Nc4ccc5cnn(C)c5c4)ncnc3cc2OC)CC1 assayedtarget="Ba/F3 stable cells (Homo sapiens, UniProt P00533, DUP771-773, cells depend on it)" readoutname=pEC50 observedmeasurement="6.00 to 6.70"
compound=C#CC(=O)N1CCC=C(c2ccc3ncnc(Nc4ccc(Cl)c(Cl)c4F)c3c2)C1 assayedtarget="Ba/F3 stable cells (Homo sapiens, UniProt P00533, DUP771-773, cells depend on it)" readoutname=pEC50 observedmeasurement="6.00 to 6.70"
compound=C=CC(=O)N1CCC(Oc2cc3c(Nc4ccc5ccccc5n4)ncnc3cc2OC)CC1 assayedtarget="Ba/F3 stable cells (Homo sapiens, UniProt P00533, DUP771-773, cells depend on it)" readoutname=pEC50 observedmeasurement="6.00 to 6.70"
compound=C=CC(=O)N1CC(c2cc3c(NCc4cccc(Cl)c4)ncnc3cc2OC)C1 assayedtarget="Ba/F3 stable cells (Homo sapiens, UniProt P00533, DUP771-773, cells depend on it)" readoutname=pEC50 observedmeasurement="6.00 to 6.70"

----------
# assayedTarget: Ba/F3 stable cells (Homo sapiens, UniProt P00533, DUP768-770, cells depend on it)
# Construct: EC50 Ba/F3-EGFR D770-N771insSVD; other: Ba/F3-EGFR D770-N771insSVD cells, 72 h, CCK-8
# Sequence (P00533 with tags, fused parts or gaps DUP768-770): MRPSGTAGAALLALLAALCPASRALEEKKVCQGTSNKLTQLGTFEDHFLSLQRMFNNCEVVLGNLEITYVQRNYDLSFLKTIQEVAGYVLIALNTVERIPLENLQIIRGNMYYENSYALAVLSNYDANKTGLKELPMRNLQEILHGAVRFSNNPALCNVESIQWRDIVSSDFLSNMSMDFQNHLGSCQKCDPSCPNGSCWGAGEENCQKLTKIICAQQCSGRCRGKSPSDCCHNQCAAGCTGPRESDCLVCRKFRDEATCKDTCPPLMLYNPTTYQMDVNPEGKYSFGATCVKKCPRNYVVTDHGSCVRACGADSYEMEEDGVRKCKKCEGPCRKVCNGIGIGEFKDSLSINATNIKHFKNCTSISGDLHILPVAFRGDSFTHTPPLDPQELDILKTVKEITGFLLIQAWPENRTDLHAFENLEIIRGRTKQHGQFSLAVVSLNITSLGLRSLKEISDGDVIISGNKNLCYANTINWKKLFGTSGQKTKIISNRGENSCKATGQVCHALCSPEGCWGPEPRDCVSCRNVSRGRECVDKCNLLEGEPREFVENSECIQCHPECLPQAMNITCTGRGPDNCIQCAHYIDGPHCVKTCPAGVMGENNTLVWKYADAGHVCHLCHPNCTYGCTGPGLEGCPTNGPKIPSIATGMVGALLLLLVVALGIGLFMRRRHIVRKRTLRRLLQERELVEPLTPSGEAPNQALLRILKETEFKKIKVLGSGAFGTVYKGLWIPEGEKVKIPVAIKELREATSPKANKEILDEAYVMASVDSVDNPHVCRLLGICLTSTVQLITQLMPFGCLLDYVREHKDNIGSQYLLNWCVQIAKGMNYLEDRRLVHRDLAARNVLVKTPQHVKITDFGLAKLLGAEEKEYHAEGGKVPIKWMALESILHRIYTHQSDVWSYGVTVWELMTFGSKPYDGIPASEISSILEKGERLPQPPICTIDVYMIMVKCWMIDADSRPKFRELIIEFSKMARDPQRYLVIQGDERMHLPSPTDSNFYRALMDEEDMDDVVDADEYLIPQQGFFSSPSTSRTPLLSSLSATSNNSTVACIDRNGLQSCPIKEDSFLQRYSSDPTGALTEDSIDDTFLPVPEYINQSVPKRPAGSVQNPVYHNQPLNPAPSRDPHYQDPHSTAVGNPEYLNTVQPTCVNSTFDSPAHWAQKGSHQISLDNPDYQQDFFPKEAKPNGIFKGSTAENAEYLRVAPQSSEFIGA
# experimentalProtocol: EC50 assay: Ba/F3 stable cell proliferation (CCK-8, 72 h)
# conditionSummary: Ba/F3-EGFR D770-N771insSVD cells
readoutName: EC50

compound=C=CC(=O)N1CCC(Oc2cc3c(Nc4cccc5[nH]ccc45)ncnc3cc2OC)CC1 readoutname=EC50 observedmeasurement="> 1000 nM"
compound=COc1cc2ncnc(Nc3ccc(Cl)c(Cl)c3F)c2cc1C1=CCCN(C#N)C1 readoutname=EC50 observedmeasurement="> 1000 nM"
compound=C#CC(=O)N1CC(c2cc3c(Nc4ccc(OCc5ccccc5)c(Cl)c4F)ncnc3cc2OC)C1 readoutname=EC50 observedmeasurement="> 1000 nM"
compound="C=CC(=O)N1CCCC(Oc2cc3c(Nc4ccc(Cl)c(Cl)c4F)ncnc3cc2OC)C1 (stereo not shown)" readoutname=EC50 observedmeasurement="200 to 1000 nM"
compound="C=CC(=O)N1C2CCCC1CC(Oc1cc3c(Nc4ccc(Cl)c(Cl)c4F)ncnc3cc1OC)C2 (stereo not shown)" readoutname=EC50 observedmeasurement="≤ 200 nM"
compound=C=CS(=O)(=O)N1CCC=C(c2ccc3ncnc(Nc4ccc(Cl)c(Cl)c4F)c3c2)C1 readoutname=EC50 observedmeasurement="≤ 200 nM"
compound="C=CC(=O)N1C2CCC1CC(Oc1cc3c(Nc4ccc5ccccc5c4)ncnc3cc1OC)C2 (stereo not shown)" readoutname=EC50 observedmeasurement="≤ 200 nM"
compound=C=CC(=O)N1CCC(Oc2cc3c(Nc4ccc5c(c4)CCN5)ncnc3cc2OC)CC1 readoutname=EC50 observedmeasurement="200 to 1000 nM"
compound=C=CC(=O)N1CC(c2cc3c(Nc4ccc(F)c(Cl)c4F)ncnc3cc2OC)C1 readoutname=EC50 observedmeasurement="≤ 200 nM"
compound=C=CC(=O)N1CCC(Oc2cc3c(NCc4cccc(C)c4)ncnc3cc2OC)CC1 readoutname=EC50 observedmeasurement="200 to 1000 nM"

----------
# assayedTarget: Ba/F3 stable cells (Homo sapiens, UniProt P04626, DUP772-775, cells depend on it)
# Construct: EC50 Ba/F3-HER2 A775-G776insYVMA; other: Ba/F3-HER2 A775-G776insYVMA cells, 72 h, CCK-8
# Sequence (P04626 with tags, fused parts or gaps DUP772-775): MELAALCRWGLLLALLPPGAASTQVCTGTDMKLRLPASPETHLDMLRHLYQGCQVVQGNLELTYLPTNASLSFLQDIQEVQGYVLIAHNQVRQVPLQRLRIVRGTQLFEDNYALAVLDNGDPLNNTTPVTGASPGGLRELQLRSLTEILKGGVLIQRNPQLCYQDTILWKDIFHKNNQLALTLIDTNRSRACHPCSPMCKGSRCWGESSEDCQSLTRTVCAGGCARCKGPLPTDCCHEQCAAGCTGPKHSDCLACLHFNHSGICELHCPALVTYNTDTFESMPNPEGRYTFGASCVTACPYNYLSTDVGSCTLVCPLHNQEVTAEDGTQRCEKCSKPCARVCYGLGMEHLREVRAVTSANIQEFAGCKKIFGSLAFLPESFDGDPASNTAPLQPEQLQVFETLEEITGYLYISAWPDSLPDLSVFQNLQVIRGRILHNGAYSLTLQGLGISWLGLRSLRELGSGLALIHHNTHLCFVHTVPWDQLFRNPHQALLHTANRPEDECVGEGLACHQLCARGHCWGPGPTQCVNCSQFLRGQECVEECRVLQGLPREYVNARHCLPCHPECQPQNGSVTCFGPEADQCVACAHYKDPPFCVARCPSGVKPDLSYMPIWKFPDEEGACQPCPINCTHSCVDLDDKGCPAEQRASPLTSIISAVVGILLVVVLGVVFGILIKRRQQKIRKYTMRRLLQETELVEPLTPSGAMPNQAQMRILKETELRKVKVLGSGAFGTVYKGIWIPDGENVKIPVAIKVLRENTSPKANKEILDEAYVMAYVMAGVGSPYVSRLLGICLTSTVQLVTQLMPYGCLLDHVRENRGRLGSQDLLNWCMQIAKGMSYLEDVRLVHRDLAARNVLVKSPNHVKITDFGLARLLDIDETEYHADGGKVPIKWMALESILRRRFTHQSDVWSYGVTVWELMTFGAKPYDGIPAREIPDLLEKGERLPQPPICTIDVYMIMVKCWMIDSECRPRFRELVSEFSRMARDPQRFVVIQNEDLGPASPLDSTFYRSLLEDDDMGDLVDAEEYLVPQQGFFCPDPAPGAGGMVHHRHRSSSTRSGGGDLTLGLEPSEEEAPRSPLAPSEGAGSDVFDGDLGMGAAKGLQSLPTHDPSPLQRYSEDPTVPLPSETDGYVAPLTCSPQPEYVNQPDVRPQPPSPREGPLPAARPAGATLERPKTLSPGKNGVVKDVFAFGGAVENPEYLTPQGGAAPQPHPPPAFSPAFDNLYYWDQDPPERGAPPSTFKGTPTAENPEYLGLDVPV
# experimentalProtocol: EC50 assay: Ba/F3 stable cell proliferation (CCK-8, 72 h)
# conditionSummary: Ba/F3-HER2 A775-G776insYVMA cells
readoutName: EC50

compound="C=CC(=O)N1C2CCCC1CC(Oc1cc3c(Nc4cccc5c4CCC5)ncnc3cc1OC)C2 (stereo not shown)" observedmeasurement="> 1000 nM"
compound=C=CC(=O)N1CCC(Oc2cc3c(NCc4cccc(F)c4)ncnc3cc2OC)CC1 observedmeasurement="≤ 200 nM"
compound=C=CC(=O)N1CCC(Oc2cc3c(Nc4ccnc5ccccc45)ncnc3cc2OC)CC1 observedmeasurement="200 to 1000 nM"
compound=C=CC(=O)N[C@H]1C[C@@H](Oc2cc3c(Nc4ccc(Cl)c(Cl)c4)ncnc3cc2OC)C1 observedmeasurement="200 to 1000 nM"
compound="C=CS(=O)(=O)N1CCCC(c2ccc3ncnc(Nc4ccc(Cl)c(Cl)c4F)c3c2)C1 (stereo not shown)" observedmeasurement="200 to 1000 nM"
compound=C#CC(=O)N1CCC=C(c2cc3c(Nc4ccc(Cl)c(Cl)c4F)ncnc3cc2OC)C1 observedmeasurement="200 to 1000 nM"
compound="C=CC(=O)NCC1COc2cc3ncnc(Nc4ccc(Cl)c(Cl)c4F)c3cc21 (stereo not shown)" observedmeasurement="≤ 200 nM"
compound=C=CC(=O)N[C@H]1C[C@H](Oc2cc3c(Nc4ccc(C#N)c(Cl)c4)ncnc3cc2OC)C1 observedmeasurement="> 1000 nM"
compound=C=CC(=O)N1CCC(Oc2cc3c(NCc4ccc(Cl)c(F)c4)ncnc3cc2OC)CC1 observedmeasurement="≤ 200 nM"
compound=C=CC(=O)N1CCC(Oc2cc3c(NCc4ccc(F)c(Cl)c4)ncnc3cc2OC)CC1 observedmeasurement="≤ 200 nM"

----------
# assayedTarget: Ba/F3 stable cells (Homo sapiens, UniProt P00533, T790M/L858R, cells depend on it)
# Construct: EC50 Ba/F3-EGFR L858R-T790M; other: Ba/F3-EGFR L858R-T790M cells, 72 h, CCK-8
# Sequence (P00533 whole entry T790M/L858R): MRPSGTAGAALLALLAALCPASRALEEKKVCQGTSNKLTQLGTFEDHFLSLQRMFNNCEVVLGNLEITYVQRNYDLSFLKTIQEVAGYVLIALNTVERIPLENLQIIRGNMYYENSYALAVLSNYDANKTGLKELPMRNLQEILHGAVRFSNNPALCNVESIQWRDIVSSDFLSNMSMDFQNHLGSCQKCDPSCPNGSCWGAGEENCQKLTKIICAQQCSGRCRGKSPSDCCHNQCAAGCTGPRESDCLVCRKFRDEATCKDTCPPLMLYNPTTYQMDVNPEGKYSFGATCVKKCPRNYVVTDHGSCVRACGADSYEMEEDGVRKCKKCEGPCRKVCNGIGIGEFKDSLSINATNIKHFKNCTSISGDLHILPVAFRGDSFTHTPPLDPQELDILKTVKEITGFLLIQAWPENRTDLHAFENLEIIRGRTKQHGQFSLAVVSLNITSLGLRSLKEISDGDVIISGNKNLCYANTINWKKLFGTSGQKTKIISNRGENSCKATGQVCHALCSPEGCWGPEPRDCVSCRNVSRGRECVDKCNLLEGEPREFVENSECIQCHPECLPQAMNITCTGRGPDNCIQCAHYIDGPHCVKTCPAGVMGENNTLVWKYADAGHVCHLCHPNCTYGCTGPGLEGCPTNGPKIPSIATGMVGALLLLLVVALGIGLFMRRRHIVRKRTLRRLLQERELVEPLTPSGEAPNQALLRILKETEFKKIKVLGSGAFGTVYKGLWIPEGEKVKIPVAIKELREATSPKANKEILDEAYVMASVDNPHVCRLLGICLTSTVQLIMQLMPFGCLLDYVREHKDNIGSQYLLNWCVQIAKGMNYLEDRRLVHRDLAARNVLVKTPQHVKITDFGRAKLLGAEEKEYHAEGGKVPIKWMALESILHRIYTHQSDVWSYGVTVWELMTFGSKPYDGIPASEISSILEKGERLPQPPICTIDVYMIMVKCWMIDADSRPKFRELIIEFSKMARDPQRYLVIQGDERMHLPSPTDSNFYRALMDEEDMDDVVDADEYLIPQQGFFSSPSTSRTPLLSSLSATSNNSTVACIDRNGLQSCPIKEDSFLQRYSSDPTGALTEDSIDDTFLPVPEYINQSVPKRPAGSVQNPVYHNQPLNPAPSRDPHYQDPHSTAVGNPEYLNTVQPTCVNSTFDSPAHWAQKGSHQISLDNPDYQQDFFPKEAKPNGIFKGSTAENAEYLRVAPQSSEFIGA
# experimentalProtocol: EC50 assay: Ba/F3 stable cell proliferation (CCK-8, 72 h)
# Type: cell-based
# conditionSummary: Ba/F3-EGFR L858R-T790M cells
pEC50: −log10 of the molar value.
# pEC50 per entry
readoutName: pEC50

compound="C=CC(=O)N1CC(c2cc3c(Nc4cccc5ccccc45)ncnc3cc2OC)C1 [Compound 4]" readoutname=pEC50 observedmeasurement="6.00 to 6.70"
compound="C=CC(=O)N1CCC(Oc2cc3c(NC(CCO)c4cccc(Cl)c4)ncnc3cc2OC)CC1 (centres unmarked) [Compound 131]" readoutname=pEC50 observedmeasurement="< 6.00"
compound="[2H]C([2H])([2H])Oc1cc2ncnc(Nc3ccc(Cl)c(Cl)c3F)c2cc1C1CN(C(=O)C(=C)F)C1 [Compound 39]" readoutname=pEC50 observedmeasurement="< 6.00"
compound="C=CC(=O)N1CC(c2cc3c(Nc4ccc(Cl)c(Cl)c4F)ncnc3cc2OCCN(C)C)C1 [Compound 26]" readoutname=pEC50 observedmeasurement="6.00 to 6.70"
compound="C#CC(=O)NC1CC(Oc2cc3c(Nc4cccc5ccccc45)ncnc3cc2OC)C1 (centres unmarked) [Compound 46]" readoutname=pEC50 observedmeasurement="≥ 6.70"
compound="C=C(F)C(=O)N1CC(c2cc3c(Nc4ccc(Cl)c(Cl)c4F)ncnc3cc2O[C@H]2CCOC2)C1 [Compound 37]" readoutname=pEC50 observedmeasurement="6.00 to 6.70"
compound="C=CC(=O)N1CCC(Oc2cc3c(Nc4cccc5cccnc45)ncnc3cc2OC)CC1 [Compound 146]" readoutname=pEC50 observedmeasurement="6.00 to 6.70"
compound="C=CC(=O)N1CCC(Oc2cc3c(Nc4cccc5ccccc45)ncnc3cc2OC)CC1 [Compound 149]" readoutname=pEC50 observedmeasurement="≥ 6.70"
compound="C#CC(=O)NC1CC(Oc2cc3c(Nc4ccc(Cl)c(Cl)c4F)ncnc3cc2OC)C1 (centres unmarked) [Compound 49]" readoutname=pEC50 observedmeasurement="≥ 6.70"
compound="C=CC(=O)N1CC(c2cc3c(NCc4ccc(F)cc4)ncnc3cc2OC)C1 [Compound 13]" readoutname=pEC50 observedmeasurement="< 6.00"
compound="C=CC(=O)N1CCC(Oc2cc3c(Nc4ccc5cccnc5c4)ncnc3cc2OC)CC1 [Compound 141]" readoutname=pEC50 observedmeasurement="6.00 to 6.70"
compound="C=CC(=O)NC1CC(Oc2cc3c(Nc4cccc5c4CCCC5)ncnc3cc2OC)C1 (centres unmarked) [Compound 89]" readoutname=pEC50 observedmeasurement="< 6.00"
compound="C=CC(=O)N1CCC(Oc2cc3c(C(=O)N[C@H](C)c4ccc(F)cc4)ncnc3cc2OC)CC1 [Compound 95]" readoutname=pEC50 observedmeasurement="< 6.00"
compound="C=CC(=O)N1CC(c2cc3c(Nc4ccc(F)c(Cl)c4)ncnc3cc2OC)C1 [Compound 6]" readoutname=pEC50 observedmeasurement="6.00 to 6.70"
compound="C=CC(=O)NC1CC(Oc2cc3c(Nc4ccc(Cl)cc4F)ncnc3cc2OC)C1 (centres unmarked) [Compound 78]" readoutname=pEC50 observedmeasurement="< 6.00"
compound="C=CC(=O)N1CC(c2cc3c(Nc4ccc5[nH]ccc5c4)ncnc3cc2OC)C1 [Compound 11]" readoutname=pEC50 observedmeasurement="< 6.00"
compound="C=CS(=O)(=O)N1CCC(Oc2c(OC)cc3ncnc4c3c2NC(=O)N4c2ccc(Cl)c(Cl)c2)CC1 [Compound 226]" readoutname=pEC50 observedmeasurement="≥ 6.70"
